// data source = ChEMBL document CHEMBL3098012

The following molecules are listed with their measured CC50 at 48 h values.
- Protocol Notes: Cytotoxicity against ER-negative HEK293 cells after 48 hrs by MTT assay
- Format: cell-based
- Settings: human
Readout Label: CC50 at 48 h

CCCCCCC(CCCCCC)=C(c1ccc(OCCN2CCCCCC2)cc1)c1ccc(OCCN2CCCCCC2)cc1: > 30 µM
c1ccc(C(=C(c2ccc(OCCN3CCCCCC3)cc2)c2ccc(OCCN3CCCCCC3)cc2)C2CCCCC2)cc1: > 30 µM
CCCC(CCC)=C(c1ccc(OCCN2CCCCCC2)cc1)c1ccc(OCCN2CCCCCC2)cc1: > 30 µM
